# Test system: NCI-H322M lung
# ASSAY_DETAILS: NCI-60 one-dose screen, 48 h (100 = growth as untreated, 0 = no growth, -100 = all killed)
# SETTINGS: 10 µM
The panel holds about 83,000 compounds, 20% with a hit somewhere; the sample as a whole holds those more often.
READOUT_LABEL: growth (%)
Field format: number, assumed %, no unit text.

**Query** Bench note: what growth did "C[N+](C)(C)C(=O)c1ccccc1" show?
**Result** 118

**Query** growth for "N#CC(=Nc1cccc(F)c1)C1=C(O)c2ccccc2C1=O" ?
**Result** 96.3

**Query** Given "CCNCCCCNCCCCNCCCCNCCCCNCC" , state its recorded growth.
**Result** 42.1

**Query** Query: growth; subject: "CCOC(=O)c1cc(/C=C/c2cccc(Cl)c2)on1"
**Result** 96.1

**Query** Please look up its growth: "CCCCNC1(C#N)CCN(Cc2ccccc2)CC1"
**Result** 98.8

###

# Tested on: OVCAR-3 ovarian
# ASSAY_DETAILS: NCI-60 one-dose screen, 48 h (100 = growth as untreated, 0 = no growth, -100 = all killed)
# SETTINGS: 10 µM
This is part of a sample that, as a whole, favours compounds with a hit. Of some 83,000 tested, about 20% had one in any assay.
READOUT_LABEL: growth (%)
// units = %; emit number, no label

Use these answered entries as a reference point.
INSERT INTO assay_data (molecule, readout_label, observed_measurement) VALUES
  ('CN(C)C(=O)Oc1cccc([N+](C)(C)C)c1', 'growth', 115),
  ('CC(=O)NC(N)=S', 'growth', 119),
  ('Brc1cnc2ccccc2c1', 'growth', 99.7);

**Query** Lab note: need growth for "O=S(=O)(O)c1ccc(O)c2ccccc12" on OVCAR-3 ovarian, anyone have it?
**Result** 108

**Query** Request: growth, test system OVCAR-3 ovarian, entry "Sc1ccc(Nc2c3ccccc3nc3ccccc23)cc1"
**Result** 100

**Query** API: value(readout=growth, system=OVCAR-3 ovarian) for record "S=c1[nH]ccn1-c1ccccc1Cl"
**Result** 98.2

**Query** Find growth (OVCAR-3 ovarian) for the entry "COc1ncnc2c1cnn2C"
**Result** 109

###

# System: NCI-H23 lung
# ASSAY_DETAILS: NCI-60 one-dose screen, 48 h (100 = growth as untreated, 0 = no growth, -100 = all killed)
# SETTINGS: 10 µM
About 83,000 compounds went through this panel and 20% of them were active in at least one assay; those are over-represented in the sample as a whole.
READOUT_LABEL: growth (%)
Reply numerically in %, unit not repeated.

INSERT INTO assay_data (compound, u, observed_measurement) VALUES
  ('CC1C(=O)c2ccccc2CC1C(=O)O (stereo unspecified)', '%', 96.8),
  ('CC(=O)c1c[nH]c2ccccc12', '%', 106),
  ('C1CNC(C2=NCCN2)=N1', '%', 106),
  ('C=CC[N+](C)(C)C', '%', 103),
  ('O=C(N/N=C\c1cc(Br)cc(Br)c1O)N/N=C/c1cc(Br)cc(Br)c1O', '%', 67.1),
  ('O=C(O)c1cc([N+](=O)[O-])ccc1Cl', '%', 104);

**Query** So what does the record say about growth for "FC(F)(F)c1ccc2c(c1)N(CCCN1CCN(C3CC3)CC1)c1ccccc1S2" ?
**Result** 27

**Query** Need growth of "CC1(C)Nc2cccc3c(N=Nc4ccc(N=Nc5ccccc5)c5ccccc45)ccc(c23)N1" , thanks.
**Result** 85.1
